Reported values of melting point for individual entries
Counter-ions that a name gives are not always drawn.

Consider the reported melting point for these compounds:
compound	recorded value
Cc1nc2ccc(N3CCN[C@H](C)C3)nn2c1-c1ccncc1 [Compound 26]	146 to 148 °C
Cc1nc2ccc(N3CCNCC3)nn2c1-c1ccncc1 [Compound 1]	166 to 168 °C
Cc1nc2ccc(N3CCN(C4CCC4)CC3)nn2c1-c1ccnc(N)c1 [Compound 48]	132 to 144 °C
Cc1cc(-c2c(C)nc3ccc(N4CCC(N5CCCC5)CC4)nn23)ccn1 [Compound 83]	124 to 126 °C
Cc1cc(-c2c(C)nc3ccc(N4CC5CNCC5C4)nn23)ccn1 (stereo not drawn) (as salt: HCl) [Compound 67]	214 to 221 °C

Can you share its melting point? I mean this compound: Cc1nc2ccc(N3C[C@@H](C)N[C@@H](C)C3)nn2c1-c1ccnc(N)c1 [Compound 56]
213 to 215 °C

====

Listing of entries alongside the reported melting point.

Answered cases to consult:
smiles text	melting point
Cc1nc2ccc(N3CCN(C4CCC4)CC3)nn2c1-c1ccncc1	122 to 132 °C
CC(C)c1nc2ccc(N3CCNCC3)nn2c1-c1ccncc1	199 to 201 °C

Let's switch to this compound now.
# lookup: melting point of "Cc1nc2ccc(N3CCC(N4CCCC4)CC3)nn2c1-c1ccncc1"
150 to 153 °C

====

Structures can show the parent of a compound that is named as a salt.
Each entry below carries its reported melting point.

molecule	recorded value
CCN1CCN(c2ccc3nc(C)c(-c4ccncc4)n3n2)CC1 (as salt: HCl)	305 to 307 °C
c1cc(-c2c(C3CC3)nc3ccc(N4CCNCC4)nn23)ccn1	169 to 171 °C
Cc1cc(-c2c(C)nc3ccc(N4C[C@@H](C)N[C@@H](C)C4)nn23)ccn1	127 to 129 °C
COc1cc(-c2c(C)nc3ccc(N4CCN[C@@H](C)C4)nn23)ccn1	106 to 108 °C
Cc1nc2ccc(N3CCNCC3)nn2c1-c1ccnc(F)c1	139 to 141 °C

Recorded melting point of "Cc1nc2ccc(N3CCNC(C)(C)C3)nn2c1-c1ccnc(CN)c1" , please.
151 to 156 °C

Quick one: "CNc1cc(-c2c(C)nc3ccc(N4C[C@@H](C)N[C@@H](C)C4)nn23)ccn1"
111 to 126 °C

Check "Cc1nc2ccc(N3CCN[C@H](C)C3)nn2c1-c1ccnc(N)c1" too.
172 to 177 °C

Repeat for the following molecule: Cc1nc2ccc(N3CCC4(CC3)CNCCO4)nn2c1-c1ccnc(N)c1 (as salt: HCl)
> 300 °C

====

List of melting point values.
Where a name gives a salt, the structure may show the parent alone.

compound	melting point
Cc1nc2ccc(N3CCN[C@@H](C)C3)nn2c1-c1ccncc1 [Compound 35]	146 to 148 °C
Cc1nc2ccc(N3CC4CN(C(C)C)CC4C3)nn2c1-c1ccncc1 (stereo not drawn) [Compound 72]	172 to 175 °C

Give the measured melting point of Cc1nc2ccc(N3CCNCC3)nn2c1-c1ccncc1 (as salt: HCl) [Compound 2] .
319 to 321 °C
